# experiment description: NCI Yeast Anticancer Drug Screen. Data for the rad50 strain (AID 155)
# applied conditions: S. cerevisiae rad50 strain growth inhibition; at 50.0 µM
This is part of a sample that, as a whole, favours compounds with a hit. Of some 79,000 tested, about 15% had one in any assay. Calls of active or inactive are those of the source. Cut-off read from the data, not from the text of the source: active = growth inhibition above about 70%; inactive = the rest.
Thanks in advance; please answer with one of these: true (active), false (inactive)

These recorded examples may help you get a feel for the data.
compound	class assignment
O=C(Nc1ccc(Cl)cc1)Nc1nnc2nc(C(C(=O)c3ccc(F)cc3)c3nc4nnc(NC(=O)Nc5ccc(Cl)cc5)n4[nH]c3=O)c(=O)[nH]n12	true
O=C(CCBr)NC(=O)Oc1cccc2ccccc12	true
CNC(=O)NN(C)C=O	false
N/C(=N\OC(=O)Nc1ccccc1)c1ccccc1	false
CCOC(=O)/C(Cl)=C(\C)Nc1nc2c(ccc3ccccc32)s1	false

With those in mind, consider the next compound.
Could you kindly confirm the outcome this assay logged for CC(=O)OC1COC(N2C(=O)C(=O)c3cc(Br)ccc32)C(OC(C)=O)C1OC(C)=O (stereo unspecified) ?
false
